- System tested: LmjIPCS (inositol phosphorylceramide synthase from L. major) (Leishmania major, UniProt E9AFX2)
- Sequence (E9AFX2 1-338): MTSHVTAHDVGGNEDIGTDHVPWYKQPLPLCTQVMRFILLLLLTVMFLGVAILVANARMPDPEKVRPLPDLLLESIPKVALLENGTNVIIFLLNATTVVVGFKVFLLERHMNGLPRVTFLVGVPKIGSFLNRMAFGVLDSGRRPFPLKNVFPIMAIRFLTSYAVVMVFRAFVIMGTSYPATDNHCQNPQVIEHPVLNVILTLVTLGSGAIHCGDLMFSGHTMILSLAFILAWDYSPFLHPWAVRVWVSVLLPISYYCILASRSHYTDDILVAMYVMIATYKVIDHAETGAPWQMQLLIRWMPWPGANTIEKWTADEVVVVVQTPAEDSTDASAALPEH
- Assay method text: biochemical
- Format: biochemical
20mM inhibition LmjIPCS values, listed per item
Reported property: 20mM inhibition LmjIPCS (%)

{"Compound": "C[C@]12CC[C@@H]3c4ccc(O)cc4CC[C@H]3[C@@H]1CC[C@@H]2OC(=O)CCC1CCCC1 [ESTRADIOL CYPIONATE]", "Unit abbrev": "%", "Measurement": 83}
{"Compound": "CC1(C)S[C@@H]2[C@H](NC(=O)[C@H](N)c3ccc(O)cc3)C(=O)N2[C@H]1C(=O)O [AMOXICILLIN]", "Unit abbrev": "%", "Measurement": 41}
{"Compound": "CO/N=C(\\C(=O)N[C@@H]1C(=O)N2C(C(=O)O)=C(COC(C)=O)CS[C@H]12)c1csc(N)n1 [CEFOTAXIME]", "Unit abbrev": "%", "Measurement": 44}
{"Compound": "CN1C(=O)CC[C@H]1c1cccnc1 [COTININE]", "Unit abbrev": "%", "Measurement": 34}
{"Compound": "Cc1ccsc1/C=C/C1=NCCCN1C [MORANTEL]", "Unit abbrev": "%", "Measurement": 60}
